The measured values listed here are drawn from paper PMC10958042.

B1: ATGL (PNPLA2, patatin-like phospholipase domain-containing protein 2), human, full length / CIDEC (FSP27), human (parent)
chain 1: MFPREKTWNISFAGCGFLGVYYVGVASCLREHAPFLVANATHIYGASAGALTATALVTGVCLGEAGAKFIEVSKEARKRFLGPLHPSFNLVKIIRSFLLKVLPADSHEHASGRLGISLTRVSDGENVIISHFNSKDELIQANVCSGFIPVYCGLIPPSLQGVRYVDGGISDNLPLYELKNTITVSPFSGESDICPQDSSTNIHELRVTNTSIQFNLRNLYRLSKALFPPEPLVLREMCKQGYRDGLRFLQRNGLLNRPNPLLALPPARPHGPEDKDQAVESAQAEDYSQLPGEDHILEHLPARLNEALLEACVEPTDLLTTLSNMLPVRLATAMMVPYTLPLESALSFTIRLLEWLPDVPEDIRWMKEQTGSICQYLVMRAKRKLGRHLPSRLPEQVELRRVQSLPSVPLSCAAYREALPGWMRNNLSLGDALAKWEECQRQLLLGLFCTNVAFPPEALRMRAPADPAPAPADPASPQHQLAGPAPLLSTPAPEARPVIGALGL
chain 2: MEYAMKSLSLLYPKSLSRHVSVRTSVVTQQLLSEPSPKAPRARPCRVSTADRSVRKGIMAYSLEDLLLKVRDTLMLADKPFFLVLEEDGTTVETEEYFQALAGDTVFMVLQKGQKWQPPSEQGTRHPLSLSHKPAKKIDVARVTFDLYKLNPQDFIGCLNVKATFYDTYSLSYDLHCCGAKRIMKEAFRWALFSMQATGHVLLGTSCYLQQLLDATEEGQPPKGKASSLIPTCLKILQ

Variants of: B1
Experiment: LUMIER: Protein A-ATGL variant and firefly luciferase-partner co-expressed in HEK293T, lysates immunoprecipitated on IgG-coated plates, co-precipitated partner measured as luciferase luminescence
Conditions: with CIDEC (FSP27), transient co-transfection, IgG-coated LUMITRAC plates, 2 h at 4 °C, three PBS washes, Bright-Glo luciferase reagent, triplicates per assay, two …, parent: 0.24, not graded, scale: log2 fold change of co-immunoprecipitated luminescence relative to wild-type ATGL within each experiment
MEASUREMENT_KIND: screen value

As a guide, the following entries are already answered.
VARIANT_STRING: chain 1 S106K
screen value: -0.113
--
VARIANT_STRING: chain 1 L62K
screen value: 0.845
--
VARIANT_STRING: chain 1 K92L
screen value: 0.785
--
VARIANT_STRING: chain 1 L261E
screen value: -0.796
--
VARIANT_STRING: chain 1 Q140K
screen value: 0.485

Query block: Given chain 1 H109E , state its recorded screen value.
Result block: -0.00996
